The following compounds are listed with their measured relative viability values.
Tested on: NCI-H1563
Assay Details: relative viability (nuclei count vs DMSO), 5 days (fraction); higher = more cells survive
Condition Description: first compound 0.4 µM

Compound	relative viability
Clc1ccc(Nc2nnc(Cc3ccncc3)c3ccccc23)cc1 [Vatalanib] + CC(C)C[C@H](NC(=O)[C@H](Cc1ccccc1)NC(=O)c1cnccn1)B(O)O [Bortezomib] (partner 0.002 µM)	1.09
C[C@@H]1CN(CC(=O)Nc2ccc3c(c2)Cc2cccc(-c4cc(=O)cc(N5CCOCC5)o4)c2S3)C[C@H](C)O1 + Cc1nc(Nc2ncc(C(=O)Nc3c(C)cccc3Cl)s2)cc(N2CCN(CCO)CC2)n1 [Dasatinib] (partner 0.075 µM)	0.445
C[C@@H]1CN(CC(=O)Nc2ccc3c(c2)Cc2cccc(-c4cc(=O)cc(N5CCOCC5)o4)c2S3)C[C@H](C)O1 + CS(=O)(=O)CCNCc1ccc(-c2ccc3ncnc(Nc4ccc(OCc5cccc(F)c5)c(Cl)c4)c3c2)o1 [Lapatinib] (partner 2 µM)	0.859
C[C@@H]1CN(CC(=O)Nc2ccc3c(c2)Cc2cccc(-c4cc(=O)cc(N5CCOCC5)o4)c2S3)C[C@H](C)O1 + N=C(N)NC(=N)NCCc1ccccc1 [Phenformin] (partner 250 µM)	0.659
COc1cc(N2CCC(C(N)=O)CC2)ccc1Nc1nc(N)c(Cl)c(Nc2ccccc2S(=O)(=O)C(C)C)n1 [HG-5-88-01] + CCNC(=O)c1noc(-c2cc(C(C)C)c(O)cc2O)c1-c1ccc(CN2CCOCC2)cc1 [Luminespib] (partner 0.01 µM)	0.476
C[C@@H]1CN(CC(=O)Nc2ccc3c(c2)Cc2cccc(-c4cc(=O)cc(N5CCOCC5)o4)c2S3)C[C@H](C)O1 + COc1cccc2cc(-c3nc([C@H]4CC[C@H](C(=O)O)CC4)n4ncnc(N)c34)[nH]c12 [OSI-027] (partner 0.5 µM)	0.689
COc1cc(N2CCC(C(N)=O)CC2)ccc1Nc1nc(N)c(Cl)c(Nc2ccccc2S(=O)(=O)C(C)C)n1 [HG-5-88-01] + COc1cccc2cc(-c3nc([C@H]4CC[C@H](C(=O)O)CC4)n4ncnc(N)c34)[nH]c12 [OSI-027] (partner 0.5 µM)	0.709
Clc1ccc(Nc2nnc(Cc3ccncc3)c3ccccc23)cc1 [Vatalanib] + CCNC(=O)c1noc(-c2cc(C(C)C)c(O)cc2O)c1-c1ccc(CN2CCOCC2)cc1 [Luminespib] (partner 0.01 µM)	0.519
Clc1ccc(Nc2nnc(Cc3ccncc3)c3ccccc23)cc1 [Vatalanib] + Cc1nc(Nc2ncc(C(=O)Nc3c(C)cccc3Cl)s2)cc(N2CCN(CCO)CC2)n1 [Dasatinib] (partner 0.075 µM)	0.428
C[C@@H]1CN(CC(=O)Nc2ccc3c(c2)Cc2cccc(-c4cc(=O)cc(N5CCOCC5)o4)c2S3)C[C@H](C)O1 + CC(C)C[C@H](NC(=O)[C@H](Cc1ccccc1)NC(=O)c1cnccn1)B(O)O [Bortezomib] (partner 0.002 µM)	0.828
